The reported measurements were obtained from patent US11492346B2.

TARGET_ENTITY: KAT8 (Homo sapiens (Human), UniProt Q9H7Z6)
Sequence (Q9H7Z6 whole entry): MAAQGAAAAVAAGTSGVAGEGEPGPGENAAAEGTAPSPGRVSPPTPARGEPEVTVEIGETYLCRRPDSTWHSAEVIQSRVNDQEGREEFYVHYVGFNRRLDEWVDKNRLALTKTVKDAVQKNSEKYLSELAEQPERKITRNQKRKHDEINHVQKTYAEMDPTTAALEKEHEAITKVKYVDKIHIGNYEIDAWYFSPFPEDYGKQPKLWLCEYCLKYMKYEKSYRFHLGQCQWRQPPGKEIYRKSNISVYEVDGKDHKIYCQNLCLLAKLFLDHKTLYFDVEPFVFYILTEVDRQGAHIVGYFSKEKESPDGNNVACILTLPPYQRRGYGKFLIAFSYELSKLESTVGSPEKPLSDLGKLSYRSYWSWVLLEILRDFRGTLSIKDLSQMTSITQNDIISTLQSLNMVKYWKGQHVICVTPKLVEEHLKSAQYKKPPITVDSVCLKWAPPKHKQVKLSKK
METHOD: KAT assay (SAMDI mass spectrometry), KAT8
Type: biochemical
PARTICULARS: read-out: KAT8 Ki at 1 μM AcCoA
ENDPOINT_LABEL: pKi
Give bare numbers, as −log10 of the molar value.

>>> df
                                   molecule  measured_number
0  COCc1ccc(OC)c(S(=O)(=O)Nc2noc3cc(Cn4cccn4)cc(OC)c23)c1 [Example 12]             5.97
1  COc1cc(Cn2cccn2)cc2onc(NS(=O)(=O)c3ccc(C)c(C)c3)c12 [Example 72]             4.90

For every item in the list below, what is its measured pKi?
1. COc1cc(Cl)ccc1S(=O)(=O)Nc1noc2cc(Cn3cccn3)cc(OC)c12 [Example 71]
2. COc1cc(Cn2cccn2)cc2onc(NS(=O)(=O)c3ccc(C(F)F)cc3)c12 [Example 77]
3. COc1cc(OC)c(S(=O)(=O)Nc2noc3cc(Cn4cccn4)cc(OC)c23)c(OC)c1 [Example 14]
4. COc1cccc(OC)c1S(=O)(=O)Nc1noc2cc(Cn3ccnn3)cc(OC)c12 [Example 22]

// result
5.84
4.90
6.38
4.76

For every item in the list below, what is its measured pKi?
1. COc1cc(Cn2cccn2)cc2onc(NS(=O)(=O)c3ccc(C)cc3F)c12 [Example 65]
2. COc1cc2c(cc1S(=O)(=O)Nc1noc3cc(Cn4cccn4)cc(OC)c13)CCCC2 [Example 20]

// result
[4.90, 6.33]

----------
Reported pIC50, MOZ-KAT6A (Homo sapiens (Human), UniProt Q92794).
Answers are plain numbers, as −log10 of the molar value.

>>> print(df.to_string())
                                        smi                             target_entity  endpoint_label  measured_number
0  COc1cccc(OC)c1S(=O)(=O)Nc1noc2cc(-c3cnn(C)c3)cc(OC)c12  MOZ-KAT6A (Homo sapiens (Human), UniProt Q92794)           pIC50             5.90

For every item in the list below, what is its measured pIC50?
1. COc1cccc(OC)c1S(=O)(=O)Nc1noc2cc(Cn3cc(C)cn3)cc(OC)c12
2. COc1cccc(OC)c1S(=O)(=O)Nc1noc2c(-c3cnn(C)c3)cc(C)cc12

// result
7.52
4.31

// query Entry `COc1cc(Cn2cccn2)cc2onc(NS(=O)(=O)c3cccc4cc(C)cnc34)c12` has what pIC50?
// result 7.89

----------
TARGET_ENTITY: KAT5 (Homo sapiens (Human), UniProt Q92993)
Sequence (Q92993 whole entry): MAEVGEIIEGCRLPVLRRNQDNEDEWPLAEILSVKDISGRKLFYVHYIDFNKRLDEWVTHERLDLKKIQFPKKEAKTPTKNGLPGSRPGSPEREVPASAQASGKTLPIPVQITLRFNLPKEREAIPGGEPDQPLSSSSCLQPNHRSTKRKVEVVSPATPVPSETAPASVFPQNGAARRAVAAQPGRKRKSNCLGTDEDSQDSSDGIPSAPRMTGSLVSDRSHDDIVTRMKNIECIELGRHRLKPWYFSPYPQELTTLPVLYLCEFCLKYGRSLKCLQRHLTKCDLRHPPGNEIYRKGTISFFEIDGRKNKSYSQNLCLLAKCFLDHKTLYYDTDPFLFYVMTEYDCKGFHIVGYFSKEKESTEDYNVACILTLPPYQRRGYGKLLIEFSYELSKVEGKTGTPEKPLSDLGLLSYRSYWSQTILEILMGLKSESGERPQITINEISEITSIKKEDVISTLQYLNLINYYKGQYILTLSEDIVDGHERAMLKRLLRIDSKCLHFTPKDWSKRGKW
METHOD: KAT assay (SAMDI mass spectrometry), KAT5;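 note: Baculovirus-expressed KAT5 acetylating a histone H4 peptide at room temperature, read as percent conversion to product, Ki from a Morrison tight-binding competitive fit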
Format: biochemical
PARTICULARS: read-out: KAT5 Ki at 1 μM AcCoA
ENDPOINT_LABEL: log10(Ki) (log10 of the value in nM)
Recorded Ki (log10, nM)

Here is how some compounds turned out for log10(Ki).
>>> print(df.to_string())
                                        smi  endpoint_label  measured_number
0  COc1cc(Cn2cccn2)cc2onc(NS(=O)(=O)c3cc(C)c(F)c(C)c3)c12       log10(Ki)             4.00
1  COc1ccc(C2CC2)cc1S(=O)(=O)Nc1noc2cc(Cn3cccn3)cc(OC)c12       log10(Ki)             3.01
2  COc1cccc(F)c1S(=O)(=O)Nc1noc2cc(Cn3cccn3)cc(OC)c12       log10(Ki)             2.99
3  CCc1cc(Cn2cccn2)cc2onc(NS(=O)(=O)c3c(OC)cccc3OC)c12       log10(Ki)             4.10
4  CCc1cc(S(=O)(=O)Nc2noc3cc(Cn4cccn4)cc(OC)c23)c(OC)cc1OC       log10(Ki)             1.85
5  COc1cccc(OC)c1S(=O)(=O)Nc1noc2cc(Cn3nccc3C)cc(OC)c12       log10(Ki)             3.99
6  CCOc1cc(Cn2cccn2)cc2onc(NS(=O)(=O)c3c(OC)cccc3OC)c12       log10(Ki)             4.10
7  COc1cccc(OC)c1S(=O)(=O)Nc1noc2cc(Cn3cccn3)cc(OC(C)C)c12       log10(Ki)             4.78

For every item in the list below, what is its measured log10(Ki)?
1. COc1ccc(C(C)C)cc1S(=O)(=O)Nc1noc2cc(Cn3cccn3)cc(OC)c12
2. COc1ccc(OC(F)(F)F)cc1S(=O)(=O)Nc1noc2cc(Cn3cccn3)cc(OC)c12
3. COc1cc(OC)c(S(=O)(=O)Nc2noc3cc(Cn4cccn4)cc(OC4CC4)c23)c(OC)c1
4. COc1cccc(OC)c1S(=O)(=O)Nc1noc2cc(Cn3cccn3)cc(OC3CC3)c12
5. COc1cccc(OC)c1S(=O)(=O)Nc1noc2cc(Cn3ccnn3)cc(OC)c12
6. COc1cc2c(cc1S(=O)(=O)Nc1noc3cc(Cn4cccn4)cc(OC)c13)CCCC2
7. COc1cc(Cn2cccn2)cc2onc(NS(=O)(=O)c3ccc(C)c(C)c3)c12
8. COc1cc(Cn2cccn2)cc2onc(NS(=O)(=O)c3cccc(C)c3F)c12

// result
1: 2.11; 2: 2.92; 3: 5.10; 4: 4.10; 5: 4.07; 6: 2.18; 7: 3.47; 8: 2.61

// query Entry `COc1cc(Br)cc(OC)c1S(=O)(=O)Nc1noc2cc(Cn3cccn3)cc(OC)c12` has what log10(Ki)?
// result 3.23

----------
TARGET_ENTITY: KAT7 (Homo sapiens (Human))
Sequence (O95251 whole entry): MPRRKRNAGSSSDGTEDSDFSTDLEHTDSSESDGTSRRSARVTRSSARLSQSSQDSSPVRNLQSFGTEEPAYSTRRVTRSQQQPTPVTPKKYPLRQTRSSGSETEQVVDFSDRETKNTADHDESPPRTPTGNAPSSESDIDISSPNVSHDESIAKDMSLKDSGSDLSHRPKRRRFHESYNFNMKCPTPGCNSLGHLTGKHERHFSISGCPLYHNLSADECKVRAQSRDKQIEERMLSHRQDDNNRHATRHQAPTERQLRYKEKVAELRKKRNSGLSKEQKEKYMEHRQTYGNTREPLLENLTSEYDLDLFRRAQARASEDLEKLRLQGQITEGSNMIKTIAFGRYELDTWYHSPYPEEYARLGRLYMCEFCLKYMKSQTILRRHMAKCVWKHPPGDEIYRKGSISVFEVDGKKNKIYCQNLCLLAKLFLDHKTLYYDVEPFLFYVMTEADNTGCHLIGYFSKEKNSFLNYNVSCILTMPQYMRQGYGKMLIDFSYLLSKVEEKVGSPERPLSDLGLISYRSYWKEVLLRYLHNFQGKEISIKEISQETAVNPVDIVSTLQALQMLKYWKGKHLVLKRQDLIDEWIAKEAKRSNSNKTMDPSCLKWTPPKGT
METHOD: KAT assay (SAMDI mass spectrometry), KAT7
Type: biochemical
PARTICULARS: KAT7 Ki at 1 μM AcCoA
Give measured log10(Ki) for each item. Keep answers brief.
Recorded Ki (log10, nM)

Here is how some compounds turned out for log10(Ki).
In [3]: df
Out[3]:
                                   compound  measured_number
0  COc1cccc(OC)c1S(=O)(=O)Nc1noc2cc(Cc3ncco3)cc(OC)c12             2.36
1  COc1cccc(OC)c1S(=O)(=O)Nc1noc2cc(C(O)c3ccon3)cc(OC)c12 (single isomer, unassigned) [Example 113]             3.45

For every item in the list below, what is its measured log10(Ki)?
1. COc1ccccc1S(=O)(=O)Nc1noc2cc(Cn3cccn3)cc(OC)c12
2. COc1cccc(OC)c1S(=O)(=O)Nc1noc2cc(C(O)c3cnoc3)cc(OC)c12 (single isomer, unassigned) [Example 120]
3. COc1cccc(OC)c1S(=O)(=O)Nc1noc2cc(C(O)c3cc[nH]n3)cc(OC)c12 (single isomer, unassigned) [Example 117]
4. COc1cccc(OC)c1S(=O)(=O)Nc1noc2cc(C(O)c3cocn3)cc(OC)c12 (single isomer, unassigned)
5. COc1cccc(OC)c1S(=O)(=O)Nc1noc2cc(C(O)c3ncco3)cc(OC)c12 (single isomer, unassigned) [Example 109]
6. COc1cccc(OC)c1S(=O)(=O)Nc1noc2cc(Cn3cc(C)cn3)cc(OC)c12
7. COc1cccc(OC)c1S(=O)(=O)Nc1noc2cc(C(O)c3cc[nH]n3)cc(OC)c12 (single isomer, unassigned) [Example 118]
8. COc1cccc(OC)c1S(=O)(=O)Nc1noc2cc(C(O)c3ccon3)cc(OC)c12 (single isomer, unassigned) [Example 112]

// result
[1.95, 3.38, 2.30, 3.62, 3.49, 2.79, 3.36, 3.18]

// query Entry COc1cccc(OC)c1S(=O)(=O)Nc1noc2cc(C(O)c3ncco3)cc(OC)c12 (single isomer, unassigned) [Example 108] has what log10(Ki)?
// result 3.11

----------
TARGET_ENTITY: UniProtKB Q8WYB5
Sequence (Q8WYB5 whole entry): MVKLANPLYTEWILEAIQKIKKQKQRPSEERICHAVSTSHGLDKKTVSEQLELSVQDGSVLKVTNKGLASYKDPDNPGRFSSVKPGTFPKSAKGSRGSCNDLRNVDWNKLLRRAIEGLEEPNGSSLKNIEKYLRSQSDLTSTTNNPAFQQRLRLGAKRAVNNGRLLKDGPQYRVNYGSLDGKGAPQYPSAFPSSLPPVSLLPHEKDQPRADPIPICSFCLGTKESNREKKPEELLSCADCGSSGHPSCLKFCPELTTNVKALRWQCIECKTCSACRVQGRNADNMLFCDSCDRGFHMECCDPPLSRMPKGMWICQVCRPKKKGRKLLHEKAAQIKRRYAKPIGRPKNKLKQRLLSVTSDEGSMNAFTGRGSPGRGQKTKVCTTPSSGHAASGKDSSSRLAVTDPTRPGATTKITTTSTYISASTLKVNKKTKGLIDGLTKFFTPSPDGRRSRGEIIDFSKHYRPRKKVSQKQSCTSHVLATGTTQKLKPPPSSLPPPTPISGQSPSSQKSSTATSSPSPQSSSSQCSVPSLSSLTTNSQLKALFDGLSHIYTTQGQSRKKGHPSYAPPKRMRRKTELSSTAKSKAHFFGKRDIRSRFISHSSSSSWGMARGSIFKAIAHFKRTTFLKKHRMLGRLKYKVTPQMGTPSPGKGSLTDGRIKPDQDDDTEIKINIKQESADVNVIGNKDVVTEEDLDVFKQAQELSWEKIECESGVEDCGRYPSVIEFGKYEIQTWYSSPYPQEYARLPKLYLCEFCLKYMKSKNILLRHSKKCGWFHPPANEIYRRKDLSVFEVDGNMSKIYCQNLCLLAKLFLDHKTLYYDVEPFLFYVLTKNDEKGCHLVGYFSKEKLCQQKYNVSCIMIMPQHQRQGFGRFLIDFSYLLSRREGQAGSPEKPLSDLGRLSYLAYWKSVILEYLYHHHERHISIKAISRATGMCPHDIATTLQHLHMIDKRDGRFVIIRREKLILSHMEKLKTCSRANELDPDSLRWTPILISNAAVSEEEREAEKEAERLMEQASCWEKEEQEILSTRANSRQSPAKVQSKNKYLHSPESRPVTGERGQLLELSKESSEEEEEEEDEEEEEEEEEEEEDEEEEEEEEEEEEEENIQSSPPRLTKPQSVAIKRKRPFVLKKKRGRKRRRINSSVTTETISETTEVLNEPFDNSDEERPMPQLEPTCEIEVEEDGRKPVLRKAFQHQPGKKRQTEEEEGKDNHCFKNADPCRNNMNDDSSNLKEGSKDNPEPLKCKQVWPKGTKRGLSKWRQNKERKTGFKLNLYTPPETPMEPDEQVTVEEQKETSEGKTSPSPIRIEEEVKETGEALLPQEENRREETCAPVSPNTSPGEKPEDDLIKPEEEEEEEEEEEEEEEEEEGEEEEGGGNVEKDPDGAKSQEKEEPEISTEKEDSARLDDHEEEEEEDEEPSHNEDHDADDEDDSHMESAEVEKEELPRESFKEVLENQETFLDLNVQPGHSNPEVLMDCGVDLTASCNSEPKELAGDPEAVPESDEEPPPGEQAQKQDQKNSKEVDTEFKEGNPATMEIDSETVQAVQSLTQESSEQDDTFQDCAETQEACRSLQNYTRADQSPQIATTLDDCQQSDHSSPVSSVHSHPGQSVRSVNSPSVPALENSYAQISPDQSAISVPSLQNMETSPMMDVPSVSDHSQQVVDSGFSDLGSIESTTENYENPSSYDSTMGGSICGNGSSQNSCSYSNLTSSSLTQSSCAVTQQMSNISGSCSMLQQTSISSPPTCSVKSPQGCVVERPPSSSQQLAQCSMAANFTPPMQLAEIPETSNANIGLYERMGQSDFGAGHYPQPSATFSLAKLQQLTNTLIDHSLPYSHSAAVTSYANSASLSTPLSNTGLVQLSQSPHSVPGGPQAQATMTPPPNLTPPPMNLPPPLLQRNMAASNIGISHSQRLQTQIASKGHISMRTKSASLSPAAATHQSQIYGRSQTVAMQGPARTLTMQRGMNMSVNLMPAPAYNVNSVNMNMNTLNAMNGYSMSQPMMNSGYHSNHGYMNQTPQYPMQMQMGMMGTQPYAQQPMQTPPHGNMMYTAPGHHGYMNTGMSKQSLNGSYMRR
METHOD: KAT assay (SAMDI mass spectrometry), KAT6B
Format: biochemical
PARTICULARS: 25 μM AcCoA; read-out: KAT6b Ki at 25 μM AcCoA
Label key: True means Ki under 3 nM; False means Ki of 3 nM or more.

Use these answered entries as a reference point.
In [3]: df
Out[3]:
                                        smi  category_label
0  CCOc1ccccc1S(=O)(=O)Nc1noc2cc(Cn3cccn3)cc(OC)c12           False
1  COc1cc(Cn2cccn2)cc2onc(NS(=O)(=O)c3cccc(C)c3F)c12            True
2  COc1ccc(S(=O)(=O)Nc2noc3cc(Cn4cccn4)cc(OC)c23)cc1C           False
3  COc1cccc(OC)c1S(=O)(=O)Nc1noc2cc(Cn3cccn3)cc(C3CC3)c12           False
4  COc1cccc(OC)c1S(=O)(=O)Nc1noc2cc(Cn3cccn3)c(Br)cc12            True
5  COc1ccc(OC)c(S(=O)(=O)Nc2noc3cc(Cn4cccn4)cc(OC)c23)c1           False
6  COc1ccccc1S(=O)(=O)Nc1noc2cc(Cn3cccn3)ccc12           False

// query Consider the compound `CCOc1cc(Cn2cccn2)cc2onc(NS(=O)(=O)c3c(OC)cccc3OC)c12` . Is its Ki strictly less than 3 nM?
// result False
